B1: Formin-binding protein 4, residues 593 to 636; numbered along this chain, Q8N3X1 (parent)
chain: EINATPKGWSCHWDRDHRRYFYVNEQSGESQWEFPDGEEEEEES

Variants of: B1
Experiment: abundance fitness (aPCA) (normalised: wild type 0, dead -1); higher = more abundant; growth selection in yeast, the domain comes from the species named
Conditions: Homo sapiens
reported.property: abundance fitness

W13D :: -0.71
Y22K :: 0.291
I2R :: -0.006
I2S :: 0.142
R19P :: -1.24

The variant identified as E39F registered its abundance fitness at -0.155

The variant identified as E38M registered its abundance fitness at 0.058

The variant identified as N24F registered its abundance fitness at -0.687
